System: PLC/PRF/5
Assay: In vitro cytotoxicity, cell proliferation experiment (CTG assay)
Assay type: cell-based, human
Conditions: Homo sapiens; PLC/PRF/5, BRCA non-pathogenic mutation cell line
From the text: The in vitro cytotoxicity (IC50 value) of human-derived tumor cell lines was used to compare whether compound AST-3424 has significant differences in tumor cells with BRCA non-pathogenic mutation and pathogenic mutation, thereby detecting whether BRCA pathogenic mutation enhances the sensitivity of tumor cells to AST-3424 at the in vitro cell level. […]
PROPERTY LABEL: IC50 (nM)
Hi! Could you send only the number? It should be in nM, unit omitted.

Task item: Tell me the measured IC50 of C[C@@H](OP(=O)(N1CC1)N1CC1)c1ccc([N+](=O)[O-])c(Oc2cccc(C(=O)N(C)C)c2)c1 , please.
Reply: 187
